- target-or-system: human PDE4D catalytic domain (Homo sapiens (Human))
- measurement-notes: PDE4 Assay (TR-FRET, FAM-cAMP cleavage)
- Format: biochemical
- details: Table 16, Examples 277-296; read-out: PDE4 IC50 range
pIC50: −log10 of the molar value.
reported-metric: pIC50

• CCn1nc(C[C@@H](C)COC(=O)c2cnc(C)nc2)c2c1C(=O)NCC1(CCOCC1)C2 [Example 288] = > 7.00
• CCn1nc(C[C@@H](C)COC(=O)C2CCN(C(=O)OC)CC2)c2c1C(=O)NCC1(CCOCC1)C2 [Example 295] = > 7.00
• CCn1nc(C[C@@H](C)COC(=O)c2cnn(C)c2)c2c1C(=O)NCC1(CCOCC1)C2 [Example 279] = > 7.00
• CCn1nc(C[C@@H](C)COC(=O)C2CCN(C)CC2)c2c1C(=O)NCC1(CCOCC1)C2 [Example 292] = 6.30 to 7.00

----------
- target-or-system: human PDE4D catalytic domain (Homo sapiens (Human), UniProt Q08499)
- Sequence (Q08499 380-740): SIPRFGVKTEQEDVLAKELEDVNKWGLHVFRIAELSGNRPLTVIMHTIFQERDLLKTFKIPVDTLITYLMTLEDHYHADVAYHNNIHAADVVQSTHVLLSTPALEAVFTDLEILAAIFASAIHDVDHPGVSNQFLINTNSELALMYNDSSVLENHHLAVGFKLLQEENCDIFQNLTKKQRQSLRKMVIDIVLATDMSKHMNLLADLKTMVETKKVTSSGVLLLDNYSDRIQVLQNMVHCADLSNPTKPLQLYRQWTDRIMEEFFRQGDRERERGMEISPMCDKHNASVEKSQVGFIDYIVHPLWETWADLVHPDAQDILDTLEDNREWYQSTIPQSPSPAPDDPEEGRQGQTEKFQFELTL
- measurement-notes: PDE4 Assay (TR-FRET, FAM-cAMP cleavage)
- Assay type: biochemical
- details: human PDE4D catalytic domain (UniProt Q08499 [S380-L740]); 50% inhibition of substrate cleavage; read-out: PDE4 IC50 range
// IC50 lookup, one value per entry
reported-metric: IC50

* CCn1nc(CC(C)(C)COC(=O)c2cccc(S(=O)(=O)N3CCN(C(C)=O)CC3)c2)c2c1C(=O)NCC1(CCOCC1)C2 | < 0.1 µM
* CCn1nc(CCCOC(=O)c2cc(Cl)ccc2C)c2c1C(=O)NCC1(CCOCC1)C2 | < 0.1 µM
* CCn1nc(CCCOC(=O)c2ccc(OC)c(Cl)c2)c2c1C(=O)NCC1(CCOCC1)C2 | < 0.1 µM
* CCn1nc(CCCOC(=O)c2ccc(C)cc2F)c2c1C(=O)NCC1(CCOCC1)C2 | < 0.1 µM
* CCn1nc(CCCCOC(=O)c2ccc(OC)cc2)c2c1C(=O)NCC1(CCOCC1)C2 | < 0.1 µM
* CCn1nc(C[C@@H](C)COC(=O)c2cccc(S(=O)(=O)N3CCOCC3)c2)c2c1C(=O)NCC1(CCOCC1)C2 | < 0.1 µM
* CCn1nc(CC(C)(C)COC(=O)c2ccc(S(=O)(=O)C3CCCC3)cc2)c2c1C(=O)NCC1(CCOCC1)C2 | < 0.1 µM
* CCn1nc(CCCOC(=O)c2cc(F)cc(C(F)(F)F)c2)c2c1C(=O)NCC1(CCOCC1)C2 | < 0.1 µM
* CCn1nc(CCCOC(=O)c2cc(F)ccc2Cl)c2c1C(=O)NCC1(CCOCC1)C2 | < 0.1 µM
* CCn1nc(CC(C)(C)COC(=O)CCOC)c2c1C(=O)NCC1(CCOCC1)C2 | < 0.1 µM
* CCn1nc(CC(C)(C)COC(=O)[C@H]2CC[C@H](O)CC2)c2c1C(=O)NCC1(CCOCC1)C2 | < 0.1 µM
* CCn1nc(CC(C)(C)COC(=O)c2ccc(S(=O)(=O)N(C)C)cc2)c2c1C(=O)NCC1(CCOCC1)C2 | < 0.1 µM
* CCn1nc(C[C@@H](C)COC(=O)CCOC)c2c1C(=O)NCC1(CCOCC1)C2 | < 0.1 µM
* CCn1nc(CCCOC(=O)c2ccc(C(C)=O)cc2)c2c1C(=O)NCC1(CCOCC1)C2 | < 0.1 µM
* CCn1nc(C[C@@H](C)COC(=O)c2ccc(C(=O)N3CCN(C)CC3)cc2)c2c1C(=O)NCC1(CCOCC1)C2 | < 0.1 µM
* CCn1nc(CCCCOC(=O)c2ccc(C(N)=O)cc2)c2c1C(=O)NCC1(CCOCC1)C2 | < 0.1 µM

Where these numbers come from: patent US10793580B2
